Reference source: patent US20050137135A1

- assay.target: purified kidney DPIV (Sus scrofa)
- Construct: The hydrolysis of peptide analogues by purified kidney DPIV was studied as described previously [12]; from tissue; host or cells: kidney
- Sequence (P22411 whole entry): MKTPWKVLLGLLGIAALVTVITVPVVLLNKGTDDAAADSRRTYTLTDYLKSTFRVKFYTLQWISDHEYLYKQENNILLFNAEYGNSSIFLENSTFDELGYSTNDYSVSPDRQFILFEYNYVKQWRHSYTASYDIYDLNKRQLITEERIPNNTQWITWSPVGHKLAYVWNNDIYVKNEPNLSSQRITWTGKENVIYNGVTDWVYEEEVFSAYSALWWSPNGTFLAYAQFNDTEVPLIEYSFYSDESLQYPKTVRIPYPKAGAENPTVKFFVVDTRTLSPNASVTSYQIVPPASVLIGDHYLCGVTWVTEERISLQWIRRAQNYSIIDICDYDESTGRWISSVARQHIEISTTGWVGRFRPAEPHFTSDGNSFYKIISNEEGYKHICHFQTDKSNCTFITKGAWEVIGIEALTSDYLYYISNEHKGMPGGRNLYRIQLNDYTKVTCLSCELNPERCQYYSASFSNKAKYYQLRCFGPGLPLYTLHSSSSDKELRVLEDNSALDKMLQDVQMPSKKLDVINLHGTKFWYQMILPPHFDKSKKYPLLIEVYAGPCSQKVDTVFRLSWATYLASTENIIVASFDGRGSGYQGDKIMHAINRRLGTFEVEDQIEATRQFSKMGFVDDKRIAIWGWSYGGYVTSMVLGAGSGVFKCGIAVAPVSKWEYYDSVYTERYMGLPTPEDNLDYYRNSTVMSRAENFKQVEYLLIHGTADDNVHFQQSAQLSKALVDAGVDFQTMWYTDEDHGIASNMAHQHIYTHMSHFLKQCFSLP
- measurement.notes: Determination of DPIV resistance by MALDI-TOF mass spectrometry
- Assay type: in vitro ADME
- conditions: purified kidney DPIV, 0.04 M Tris buffer pH 7.6, up to 24 h, MALDI-TOF MS
Ends that are not written are not given here.
measurement.kind: half life after incubation with DP IV

Qu. Field request: half life after incubation with DP IV | item: YAPGTF-NH2 [Pro3-GIP1-6a]
Ans. stable

Qu. Which half life after incubation with DP IV is listed for YAPGTFISDYSIAM [Pro^3-GIP1-14] ?
Ans. stable
